test system: hnRNP A18 (Homo sapiens)
Sequence (Q14011 whole entry): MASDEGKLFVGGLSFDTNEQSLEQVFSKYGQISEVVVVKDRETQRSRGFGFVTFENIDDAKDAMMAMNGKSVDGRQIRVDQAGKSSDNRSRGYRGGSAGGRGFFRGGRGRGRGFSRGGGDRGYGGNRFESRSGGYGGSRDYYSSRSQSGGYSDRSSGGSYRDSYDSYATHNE
measurement protocol: Cellular thermal shift assay
experimental conditions: read-out: EC50, hnRNP A18 protection from melting; LOX-IM-VI cells over expressing GFP-hnRNP A18; 3 h; 57°C
metric: EC50 (µM)

>>> df
                                   compound  meas_value
0  Cc1sc(NC(=O)c2ccccc2)nc1OC(=O)c1ccccc1 [VITAS STK508411]        23.8
